Quick list: % Activation per entry.
measured.target: ΔF508-CFTR (Homo sapiens, UniProt P13569, DEL508-508)
Construct: host or cells: CFBE41o-, doxycycline-inducible
Sequence (P13569 with tags, fused parts or gaps DEL508-508): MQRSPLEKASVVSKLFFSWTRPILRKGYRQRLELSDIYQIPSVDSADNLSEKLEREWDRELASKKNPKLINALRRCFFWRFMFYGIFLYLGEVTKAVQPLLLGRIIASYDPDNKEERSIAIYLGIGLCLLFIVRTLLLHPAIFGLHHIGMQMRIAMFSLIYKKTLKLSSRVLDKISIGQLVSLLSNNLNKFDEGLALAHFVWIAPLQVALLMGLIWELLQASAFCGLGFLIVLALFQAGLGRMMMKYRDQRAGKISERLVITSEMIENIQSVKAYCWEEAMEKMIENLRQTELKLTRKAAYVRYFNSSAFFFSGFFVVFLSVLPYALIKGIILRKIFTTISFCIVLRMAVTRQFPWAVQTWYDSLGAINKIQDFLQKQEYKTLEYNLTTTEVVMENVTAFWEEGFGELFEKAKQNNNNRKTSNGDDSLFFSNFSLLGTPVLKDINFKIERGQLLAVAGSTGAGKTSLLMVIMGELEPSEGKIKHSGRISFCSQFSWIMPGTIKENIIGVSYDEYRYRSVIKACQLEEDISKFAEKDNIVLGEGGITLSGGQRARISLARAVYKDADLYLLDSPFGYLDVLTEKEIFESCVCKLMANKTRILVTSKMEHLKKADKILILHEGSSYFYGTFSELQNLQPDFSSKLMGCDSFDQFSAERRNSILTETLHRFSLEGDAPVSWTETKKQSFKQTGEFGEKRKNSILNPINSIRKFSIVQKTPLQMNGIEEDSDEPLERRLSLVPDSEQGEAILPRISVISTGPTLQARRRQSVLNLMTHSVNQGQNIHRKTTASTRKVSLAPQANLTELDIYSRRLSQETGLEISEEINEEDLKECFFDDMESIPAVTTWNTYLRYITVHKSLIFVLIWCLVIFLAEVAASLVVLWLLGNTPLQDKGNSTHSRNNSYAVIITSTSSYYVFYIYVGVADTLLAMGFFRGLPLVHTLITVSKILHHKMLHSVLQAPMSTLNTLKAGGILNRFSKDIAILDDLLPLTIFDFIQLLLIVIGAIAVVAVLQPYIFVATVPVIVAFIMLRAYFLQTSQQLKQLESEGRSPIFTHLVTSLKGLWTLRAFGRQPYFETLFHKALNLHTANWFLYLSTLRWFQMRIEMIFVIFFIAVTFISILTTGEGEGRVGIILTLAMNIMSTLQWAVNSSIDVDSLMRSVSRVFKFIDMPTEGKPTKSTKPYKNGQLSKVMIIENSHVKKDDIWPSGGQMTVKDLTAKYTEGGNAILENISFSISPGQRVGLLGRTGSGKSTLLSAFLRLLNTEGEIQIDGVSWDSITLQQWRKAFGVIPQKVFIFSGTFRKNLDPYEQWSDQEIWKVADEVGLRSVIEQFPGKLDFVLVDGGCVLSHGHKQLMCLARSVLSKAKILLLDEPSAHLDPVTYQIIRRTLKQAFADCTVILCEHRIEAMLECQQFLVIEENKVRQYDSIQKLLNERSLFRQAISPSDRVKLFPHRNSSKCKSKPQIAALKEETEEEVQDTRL
assay.remarks: CFTR cell surface levels using HRP-tagged ΔF508-CFTR expressing CFBE cells, in the presence of a co-corrector
Assay type: cell-based
condition: HRP-tagged ΔF508-CFTR CFBE cells, in the presence of 3 μM co-corrector
Description: Measuring CFTR Cell Surface Levels Using HRP-Tagged ΔF508-CFTR Expressing CFBE Cells The HRP-tagged ΔF508-CFTR cell assay measures the expression of CFTR-ΔF508 at the plasma membrane. […] When HRP-tagged ΔF508-CFTR is present at the plasma membrane, the HRP enzyme activity can be measured. The amount of CFTR-ΔF508 that can be rescued to the plasma membrane is correlated with the amount of functional enzyme that can be measured. […]
reported.metric: % Activation (%)

[[record]]
molecule = "COCC1CCN(c2cc(C(=O)NS(C)(=O)=O)nc3c2c(C2CCC2)nn3-c2ccccc2)CC1 [Compound 185]"
units_label = "%"
measured = 546.7

[[record]]
molecule = "CN1CCN(S(=O)(=O)NC(=O)c2cc(N3CCC(N4CCOCC4)CC3)c3c(C4CCC4)nn(-c4ccc(F)cc4)c3n2)CC1 [Compound 624]"
units_label = "%"
measured = 274.15

[[record]]
molecule = "CS(=O)(=O)NC(=O)c1cc(N2CCC(N3CCCC(F)C3)CC2)c2c(C3CCC3)nn(-c3ccc(F)cc3)c2n1 (stereo not shown) [Compound 567]"
units_label = "%"
measured = 539.8

[[record]]
molecule = "CC(C)c1nn(-c2ccc(F)cc2)c2nc(C(=O)NS(C)(=O)=O)cc(OCCC3CCCCN3C)c12 (stereo not shown) [Compound 305]"
units_label = "%"
measured = 267


====

Quick list: pEC50 per entry.
measured.target: ΔF508-CFTR (Homo sapiens, UniProt P13569, DEL508-508)
Construct: host or cells: CFBE41o-, doxycycline-inducible
assay.remarks: CFTR cell surface levels using HRP-tagged ΔF508-CFTR expressing CFBE cells, in the presence of a co-corrector
Type: cell-based
condition: HRP-tagged ΔF508-CFTR CFBE cells, in the presence of 3 μM co-corrector; read-out: EC50
Source text: Measuring CFTR Cell Surface Levels Using HRP-Tagged ΔF508-CFTR Expressing CFBE Cells The HRP-tagged ΔF508-CFTR cell assay measures the expression of CFTR-ΔF508 at the plasma membrane. […] When HRP-tagged ΔF508-CFTR is present at the plasma membrane, the HRP enzyme activity can be measured. The amount of CFTR-ΔF508 that can be rescued to the plasma membrane is correlated with the amount of functional enzyme that can be measured. […]
pEC50: −log10 of the molar value.
reported.metric: pEC50

[[record]]
structure = "COCC1CCN(c2cc(C(=O)NS(=O)(=O)CCN3C(=O)c4ccccc4C3=O)nc3c2c(C2CCC2)nn3-c2ccccc2)CC1"
reported_metric = "pEC50"
measured = 6.89

[[record]]
structure = "CC(C)N1CCN(c2ccc(-c3cc(C(=O)NS(=O)(=O)N(C)C)nc4c3c(C3CCC3)nn4C3CCCCC3)cc2)CC1"
reported_metric = "pEC50"
measured = 6.46

[[record]]
structure = "CN(C)S(=O)(=O)NC(=O)c1cc(-c2ccc(CN3CCOCC3)cc2)c2c(C3CCC3)nn(C3CCCCC3)c2n1"
reported_metric = "pEC50"
measured = 6.95


====

Quick list: log10(EC50) per entry.
measured.target: ΔF508-CFTR (Homo sapiens, UniProt P13569, DEL508-508)
Construct: host or cells: CFBE41o-, doxycycline-inducible
assay.remarks: CFTR cell surface levels using HRP-tagged ΔF508-CFTR expressing CFBE cells, intrinsic corrector capacity
Format: cell-based
condition: HRP-tagged ΔF508-CFTR expressing CFBE41o- cells; compound alone (intrinsic corrector capacity); 20 hours at 33° C.; read-out: EC50
reported.metric: log10(EC50) (log10 of the value in µM)

[[record]]
compound = "CC(C)c1nn(C2CCCCC2)c2nc(C(=O)NS(C)(=O)=O)cc(-c3ccc(N4CCC(C#N)CC4)cc3)c12"
reported_metric = "log10(EC50)"
measured = -0.36

[[record]]
compound = "CC(C)c1nn(-c2ccc(F)cc2)c2nc(C(=O)NS(C)(=O)=O)cc(N3CCC(C(C)(C)O)CC3)c12"
reported_metric = "log10(EC50)"
measured = -0.69

[[record]]
compound = "CN(C)S(=O)(=O)NC(=O)c1cc(N2CCC(CN3CCOCC3)CC2)c2c(C3CCC3)nn(-c3ccc(F)cc3)c2n1"
reported_metric = "log10(EC50)"
measured = -0.81

[[record]]
compound = "Cc1nn(-c2ccccc2)c2nc(C(=O)NS(C)(=O)=O)cc(-c3ccc(N4CCOCC4)nc3)c12"
reported_metric = "log10(EC50)"
measured = 0.22

[[record]]
compound = "COCCS(=O)(=O)NC(=O)c1cc(OCC2(C)COC2)c2c(C3CCC3)nn(-c3ccccc3)c2n1"
reported_metric = "log10(EC50)"
measured = -0.61

[[record]]
compound = "CC(C)c1nn(C2CCCCC2)c2nc(C(=O)NS(C)(=O)=O)cc(-c3ccc(N4CCOC(C)(C)C4)nc3)c12"
reported_metric = "log10(EC50)"
measured = -0.21

[[record]]
compound = "CC(C)c1nn(C2CCCCC2)c2nc(C(=O)NS(C)(=O)=O)cc(-c3ccc(N(C)C4CCOC4)nc3)c12 (stereo not drawn)"
reported_metric = "log10(EC50)"
measured = -0.33

[[record]]
compound = "CS(=O)(=O)NC(=O)c1cc(N2CCC(N3CCC(C#N)C3)CC2)c2c(C3CCC3)nn(-c3ccc(F)cc3)c2n1 (stereo not drawn)"
reported_metric = "log10(EC50)"
measured = -0.74

[[record]]
compound = "COCC1CCN(c2cc(C(=O)NS(=O)(=O)N3CCC(N4CCC[C@@H]4COC)CC3)nc3c2c(C2CCC2)nn3-c2ccccc2)CC1"
reported_metric = "log10(EC50)"
measured = -0.32

[[record]]
compound = "CNS(=O)(=O)NC(=O)c1cc(N2CCC(N3CCC(OC)CC3)CC2)c2c(C3CCC3)nn(-c3ccc(F)cc3)c2n1"
reported_metric = "log10(EC50)"
measured = -0.29

[[record]]
compound = "CN1CCN(S(=O)(=O)NC(=O)c2cc(N3CCC(CN4CCCC4)CC3)c3c(C4CCC4)nn(-c4ccccc4)c3n2)CC1"
reported_metric = "log10(EC50)"
measured = -0.22

[[record]]
compound = "CC(C)c1nn(-c2cccc(N3CCOCC3)c2)c2nc(C(=O)NS(C)(=O)=O)cc(-c3cnc(N(C)C)nc3)c12"
reported_metric = "log10(EC50)"
measured = -0.19

[[record]]
compound = "CCS(=O)(=O)NC(=O)c1cc(N2CCC(COC)CC2)c2c(C3CCC3)nn(-c3ccccc3)c2n1"
reported_metric = "log10(EC50)"
measured = -1.52

[[record]]
compound = "COCC1CCN(c2cc(C(=O)NS(C)(=O)=O)nc3c2c(C(C)C)nn3-c2ccc(F)cc2)CC1"
reported_metric = "log10(EC50)"
measured = -0.47

[[record]]
compound = "CC(C)c1nn(C2CCCOC2)c2nc(C(=O)NS(C)(=O)=O)cc(-c3ccc(N4CCC(C#N)CC4)nc3)c12 (stereo not drawn)"
reported_metric = "log10(EC50)"
measured = 0.02

[[record]]
compound = "COC(=O)N1CCC2CN(c3cc(C(=O)NS(C)(=O)=O)nc4c3c(C3CCC3)nn4-c3ccccc3)CCC21 (stereo not drawn)"
reported_metric = "log10(EC50)"
measured = -0.56

[[record]]
compound = "COCC1CCN(c2cc(C(=O)NS(=O)(=O)CCCO)nc3c2c(C2CCC2)nn3-c2ccccc2)CC1"
reported_metric = "log10(EC50)"
measured = -0.51

[[record]]
compound = "CC(C)c1nn(C2CCCOC2)c2nc(C(=O)NS(C)(=O)=O)cc(-c3ccc(N4CCOCC4)cc3)c12 (stereo not drawn)"
reported_metric = "log10(EC50)"
measured = -0.08

[[record]]
compound = "CC(C)c1nn(-c2cccc(N3CC(C)(C)C3)c2)c2nc(C(=O)NS(C)(=O)=O)cc(-c3ccc(N4CCOCC4)cc3)c12"
reported_metric = "log10(EC50)"
measured = -0.52

[[record]]
compound = "CCS(=O)(=O)NC(=O)c1cc(N2CCCCC2)c2c(C)nn(-c3ccccc3)c2n1"
reported_metric = "log10(EC50)"
measured = 0.42

[[record]]
compound = "CC(C)c1nn(-c2cccc(N(C)C)c2)c2nc(C(=O)NS(C)(=O)=O)cc(-c3cnc(N(C)C)nc3)c12"
reported_metric = "log10(EC50)"
measured = -0.19

[[record]]
compound = "COC1CCCN(C2CCN(c3cc(C(=O)NS(C)(=O)=O)nc4c3c(C3CCC3)nn4-c3ccc(F)cc3)CC2)C1 (stereo not drawn)"
reported_metric = "log10(EC50)"
measured = -0.63

[[record]]
compound = "COCC1CCN(c2cc(C(=O)NS(=O)(=O)NC3CCOCC3)nc3c2c(C2CCC2)nn3-c2ccc(F)cc2)CC1"
reported_metric = "log10(EC50)"
measured = -0.50

[[record]]
compound = "COC(=O)N1CCC(COc2cc(C(=O)NS(C)(=O)=O)nc3c2c(C(C)C)nn3-c2ccc(F)cc2)CC1"
reported_metric = "log10(EC50)"
measured = -0.89

[[record]]
compound = "CC(C)c1nn(-c2ccc(F)cc2)c2nc(C(=O)NS(C)(=O)=O)cc(C3CCN(C(=O)OC(C)(C)C)CC3)c12"
reported_metric = "log10(EC50)"
measured = 0.12

[[record]]
compound = "COc1cccc(-n2nc(C3CCC3)c3c(N4CCC(N5CCOCC5)CC4)cc(C(=O)NS(=O)(=O)N(C)C)nc32)c1"
reported_metric = "log10(EC50)"
measured = -0.73

[[record]]
compound = "COCCN(C)c1ccc(-c2cc(C(=O)NS(C)(=O)=O)nc3c2c(C(C)C)nn3-c2cccc(C(F)(F)F)c2)cc1"
reported_metric = "log10(EC50)"
measured = 0.10

